# assay-target: T1, Anti-PSMA Fab (SEQ ID NOs: 19, 20)
# T1 construct: Biotinylated and captured on neutravidin coated plates in the phage ELISA; also called 006 PSMA Fab
# procedure-text: phage binding ELISA on captured anti-PSMA Fab; PSMA antigen as competitor
assay-metric: Anti-PSMA Fab signal in the presence of PSMA

Query: # Anti-PSMA Fab signal in the presence of PSMA lookup, item IDIRCTPIWMCVGF [Phage-1789 (clonal phage displaying the peptide of SEQ ID NO: 2085)]
Reply: 0.0801

Query: # Anti-PSMA Fab signal in the presence of PSMA lookup, item ISKWCIPEWMCTSP [Phage-1787 (clonal phage displaying the peptide of SEQ ID NO: 2083)]
Reply: 0.107

Query: # Anti-PSMA Fab signal in the presence of PSMA lookup, item DVKLCKPEWMCYGL [Phage-1786 (clonal phage displaying the peptide of SEQ ID NO: 2082)]
Reply: 0.0637

Query: # Anti-PSMA Fab signal in the presence of PSMA lookup, item GEKWCIPDWMCSGF [Phage-1783 (clonal phage displaying the peptide of SEQ ID NO: 2079)]
Reply: 0.148

Query: # Anti-PSMA Fab signal in the presence of PSMA lookup, item DLRLCKPAWMCDFI [Phage-1781 (clonal phage displaying the peptide of SEQ ID NO: 2077)]
Reply: 0.0601

Query: # Anti-PSMA Fab signal in the presence of PSMA lookup, item VEKLCTPIWMCLGF [Phage-1785 (clonal phage displaying the peptide of SEQ ID NO: 2081)]
Reply: 0.0705

Query: # Anti-PSMA Fab signal in the presence of PSMA lookup, item VVKACIPTWMCQFV [Phage-1779 (clonal phage displaying the peptide of SEQ ID NO: 2075)]
Reply: 0.0901

Query: # Anti-PSMA Fab signal in the presence of PSMA lookup, item LTKLCIPDWMCSEF [Phage-1776 (clonal phage displaying the peptide of SEQ ID NO: 2072)]
Reply: 0.0876
